B1: H2-Kb / Ed16-30 (parent complex)
chain 1: GEQVEQRPPHLSVREGDSAVIICTYTDPNSYYFFWYKQEPGAGLQLLMKVFSSTEINEGQGFTVLLNKKDKQLSLNLTAAHPGDSAVYFCAVSEPSSGQKLVFGQGTILKVYL
chain 2: EAAVTQSPRNKVAVTGGKVTLSCNQTNNHNNMYWYRQDTGHGLRLIHYSYGAGSTEKGDIPDGYKASRPSQENFSLILELATPSQTSVYFCAGRDTGQLYFGEGSKLTVL
chain 3: not shown
chain 4: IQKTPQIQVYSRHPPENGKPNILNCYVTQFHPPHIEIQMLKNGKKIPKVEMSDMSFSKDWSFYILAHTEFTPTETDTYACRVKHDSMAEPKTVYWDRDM
chain 5: SIINFEKL

Variants of: B1
Assay: % of reporter cells activated (NFAT-GFP), raw; also: test concentration or dose not given here
Class (required): determined from ratio to parent; valid ranges are 1: < 0.3; 2: ≥ 0.3 and < 0.9; 3: ≥ 0.9

[
  {
    "variant_description": "chain 5 F5D",
    "label": 2
  },
  {
    "variant_description": "chain 5 K7F",
    "label": 1
  }
]

INPUT: Assign a category based on measured ratio to parent for chain 5 S1W and give only the class name.
OUTPUT: 1

INPUT: Continue with chain 5 I2H
OUTPUT: 2

INPUT: Same for chain 5 S1R
OUTPUT: 1

INPUT: And what about the variant chain 5 E6F ?
OUTPUT: 2

INPUT: Now give it for chain 5 I2S too.
OUTPUT: 3

INPUT: Repeat for the following variant: chain 5 K7G
OUTPUT: 2

INPUT: Try chain 5 F5Q next.
OUTPUT: 3

INPUT: Similarly, chain 5 I2V ?
OUTPUT: 3

INPUT: What do we get for chain 5 F5C ?
OUTPUT: 3

INPUT: Ok, now chain 5 I2G
OUTPUT: 3

INPUT: Now consider chain 5 E6T .
OUTPUT: 2

INPUT: Now consider chain 5 I3A and answer again.
OUTPUT: 2

INPUT: Also need chain 5 I3F , thanks.
OUTPUT: 2

INPUT: And what about the variant chain 5 I2F ?
OUTPUT: 3

INPUT: Repeat for the following variant: chain 5 K7Y
OUTPUT: 1

INPUT: // repeat for chain 5 N4Q and report
OUTPUT: 1

INPUT: Another variant: chain 5 S1I
OUTPUT: 2

INPUT: // repeat for chain 5 I2T and report
OUTPUT: 3
